- Test system: Escherichia coli TOP10;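 also: peptides expressed intracellularly from a pBAD plasmid library in pooled LB shake-flask culture, induced with 0.3% L-arabinose, DNA abundance read by NGS, three biological replicates, DESeq2 with apeglm shrinkage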
- Protocol: shrunken log2 fold change of peptide-encoding DNA abundance (4.5 h post-induction vs induction); higher = less antimicrobial activity (less host growth inhibition)
- Condition description: time post-induction: 4.5 h; library: site-saturation at positions 5, 18, 19, 20
Class field: derived from shrunken log2 fold change; ranges A = under -0.06, B = from -0.06 up to 0.1, C = 0.1 and over

*Q* For the record RRIRERPPRLPRPRPRPNVTPRP , report the class its shrunken log2 fold change corresponds to.
*A* A

*Q* Class? Entry: RRIRWRPPRLPRPRPRPTKSPRP
*A* C

*Q* For this sequence, which bin applies? RRIRLRPPRLPRPRPRPQVAPRP
*A* B

*Q* # bin lookup: classify RRIRMRPPRLPRPRPRPKMWPRP by its shrunken log2 fold change
*A* C

*Q* Band of RRIRWRPPRLPRPRPRPLLHPRP ?
*A* C

*Q* Bin this entry: RRIRERPPRLPRPRPRPGVMPRP
*A* B

*Q* Assign a bin to RRIRARPPRLPRPRPRPFWYPRP
*A* A

*Q* Using the reported shrunken log2 fold change, which band applies to RRIRFRPPRLPRPRPRPEGEPRP ?
*A* B

*Q* Assign a bin to RRIRNRPPRLPRPRPRPYCAPRP
*A* A

*Q* Which bin, given its shrunken log2 fold change, does RRIRCRPPRLPRPRPRPFFWPRP occupy?
*A* C

*Q* Categorize the following entry: RRIRGRPPRLPRPRPRPNKAPRP
*A* C

*Q* Categorize the following entry: RRIRHRPPRLPRPRPRPPGHPRP
*A* C

*Q* Category of RRIRMRPPRLPRPRPRPTLQPRP , please.
*A* C

*Q* Which of the defined bands does the recorded shrunken log2 fold change of RRIRWRPPRLPRPRPRPGCCPRP sit within?
*A* C

*Q* Please let me know in which category the item RRIRERPPRLPRPRPRPWRVPRP belongs.
*A* B

*Q* Band of RRIRTRPPRLPRPRPRPIGQPRP ?
*A* A

*Q* Class (by measured shrunken log2 fold change) for RRIRARPPRLPRPRPRPFEMPRP
*A* C

*Q* Tag the class for RRIRYRPPRLPRPRPRPQVVPRP
*A* A

*Q* Hello team, could you let me know which band the following sequence falls into: RRIRWRPPRLPRPRPRPHIRPRP
*A* B

*Q* Textbook exercise: identify the category of the sequence given here, RRIRVRPPRLPRPRPRPNQEPRP , according to its measured value.
*A* A

*Q* Quick check: band for RRIRKRPPRLPRPRPRPGKQPRP
*A* C

*Q* Category lookup for the sequence RRIRNRPPRLPRPRPRPEKVPRP
*A* A

*Q* // bin(item) where item = RRIRKRPPRLPRPRPRPMYWPRP
*A* A

*Q* Returns: class label. Input: RRIRIRPPRLPRPRPRPATGPRP
*A* A

*Q* Which band does RRIRVRPPRLPRPRPRPDKPPRP fall in?
*A* B

*Q* Lab note: sort RRIRSRPPRLPRPRPRPKRAPRP into the matching shrunken log2 fold change band.
*A* C

*Q* Tag the class for RRIRNRPPRLPRPRPRPTFGPRP
*A* A

*Q* Any idea which band RRIRWRPPRLPRPRPRPVHEPRP is in?
*A* C

*Q* Any idea which band RRIRARPPRLPRPRPRPKKKPRP is in?
*A* C

*Q* Textbook exercise: identify the category of the sequence given here, RRIRERPPRLPRPRPRPTSGPRP , according to its measured value.
*A* B

*Q* State the band of RRIRYRPPRLPRPRPRPLIKPRP
*A* A

Source: the supplement of paper PMC9112550
